All figures here come from patent US6696494B2.

Molecular target: HIV-1 protease (Human immunodeficiency virus type 1 group M subtype B, UniProt P04585)
Assay: Inhibition of microbial expressed viral protease (HIV-1 protease), method of Toth and Marshall
Format: biochemical
pIC50: −log10 of the molar value.
PARAMETER: pIC50

Solved cases (3 shown):
COMPOUND: CC(C)(C)NC(=O)c1ccccc1CC[C@@H](O)[C@H](Cc1ccccc1)NC(=O)COC1CCCCC1 [Example 001228]
TARGET OR TEST SYSTEM: HIV-1 protease (Human immunodeficiency virus type 1 group M subtype B, UniProt P04585)
PARAMETER: pIC50
ASSAY VALUE: 5.00 to 7.00

COMPOUND: CC(C)(C)NC(=O)c1ccccc1CC[C@@H](O)[C@H](Cc1ccccc1)NS(=O)(=O)c1ccc(C(F)(F)F)cc1 [Example 000877]
TARGET OR TEST SYSTEM: HIV-1 protease (Human immunodeficiency virus type 1 group M subtype B, UniProt P04585)
PARAMETER: pIC50
ASSAY VALUE: 5.00 to 7.00

COMPOUND: Cc1cccc(C)c1C(=O)N[C@@H](Cc1ccccc1)[C@H](O)CCc1ccccc1C(=O)NC(C)(C)C [Example 000951]
TARGET OR TEST SYSTEM: HIV-1 protease (Human immunodeficiency virus type 1 group M subtype B, UniProt P04585)
PARAMETER: pIC50
ASSAY VALUE: > 7.00

Read the next record carefully.
In: Which pIC50 is listed for CC(C)CC(O)C(=O)NC(Cc1ccccc1)C(O)CCc1ccccc1C(=O)NC(C)(C)C (stereo not shown) [Example 001219] ?
Out: 5.00 to 7.00

---

Measured pIC50, listed per entry for reference.
Molecular target: UniProtKB P04585
pIC50: −log10 of the molar value.

Solved cases (8 shown):
MOLECULE: COc1cccc(F)c1OCC(=O)N[C@@H](Cc1ccccc1)[C@H](O)CCc1ccccc1C(=O)NC(C)(C)C
TARGET OR TEST SYSTEM: UniProtKB P04585
pIC50: 5.00 to 7.00
--
MOLECULE: CC(C)(C)NC(=O)c1ccccc1CC[C@@H](O)[C@H](Cc1ccccc1)NC(=O)c1cc(C(F)(F)F)ccc1Cl
TARGET OR TEST SYSTEM: UniProtKB P04585
pIC50: < 5.00
--
MOLECULE: CC(C)(C)NC(=O)c1ccccc1CC[C@@H](O)[C@H](Cc1ccccc1)NC(=O)COc1ccc2ccccc2c1
TARGET OR TEST SYSTEM: UniProtKB P04585
pIC50: 5.00 to 7.00
--
MOLECULE: Cc1c(N)cccc1C(=O)N[C@@H](Cc1ccccc1)[C@H](O)CCc1ccccc1C(=O)NC(C)(C)C
TARGET OR TEST SYSTEM: UniProtKB P04585
pIC50: < 5.00
--
MOLECULE: Cc1cc([N+](=O)[O-])cc(C)c1OCC(=O)N[C@@H](Cc1ccccc1)[C@H](O)CCc1ccccc1C(=O)NC(C)(C)C
TARGET OR TEST SYSTEM: UniProtKB P04585
pIC50: 5.00 to 7.00
--
MOLECULE: CCC(C)(C)c1ccc(S(=O)(=O)N[C@@H](Cc2ccccc2)[C@H](O)CCc2ccccc2C(=O)NC(C)(C)C)cc1
TARGET OR TEST SYSTEM: UniProtKB P04585
pIC50: 5.00 to 7.00
--
MOLECULE: CC(C)(C)NC(=O)c1ccccc1CC[C@@H](O)[C@H](Cc1ccccc1)NC(=O)COc1c(Br)cc(F)cc1Br
TARGET OR TEST SYSTEM: UniProtKB P04585
pIC50: 5.00 to 7.00
--
MOLECULE: CC(C)(C)NC(=O)c1ccccc1CC[C@@H](O)[C@H](Cc1ccccc1)NC(=O)NC1CCCCC1
TARGET OR TEST SYSTEM: UniProtKB P04585
pIC50: < 5.00

In: Look up pIC50 with UniProtKB P04585 for this molecule: Cc1nocc1C(=O)N[C@@H](Cc1ccccc1)[C@H](O)CCc1ccccc1C(=O)NC(C)(C)C
Out: 5.00 to 7.00

In: Look up pIC50 with UniProtKB P04585 for this molecule: CC(C)(C)NC(=O)c1ccccc1CC[C@@H](O)[C@H](Cc1ccccc1)NC(=O)COc1ccccc1
Out: 5.00 to 7.00

---

Let's go through some recorded IC50 values for HIV-1 protease (Human immunodeficiency virus type 1 group M subtype B) together.

COMPOUND STRUCTURE STRING: Cc1cc(C(=O)N[C@@H](Cc2ccccc2)[C@H](O)CCc2ccccc2C(=O)NC(C)(C)C)cc(C)c1OCC(=O)O
IC50: 0.1 to 10 µM
--
COMPOUND STRUCTURE STRING: Cc1ccc(OCC(=O)N[C@@H](Cc2ccccc2)[C@H](O)CCc2ccccc2C(=O)NC(C)(C)C)cc1
IC50: 0.1 to 10 µM
--
COMPOUND STRUCTURE STRING: CC(C)(C)NC(=O)c1ccccc1CC[C@@H](O)[C@H](Cc1ccccc1)NC(=O)c1cc(F)cc(F)c1
IC50: > 10 µM
--
COMPOUND STRUCTURE STRING: CC(C)S(=O)(=O)N[C@@H](Cc1ccccc1)[C@H](O)CCc1ccccc1C(=O)NC(C)(C)C
IC50: 0.1 to 10 µM
--
COMPOUND STRUCTURE STRING: CC(C)(C)NC(=O)c1ccccc1CC[C@@H](O)[C@H](Cc1ccccc1)NC(=O)COc1cc(F)cc(F)c1
IC50: > 10 µM

In: Look up IC50 with HIV-1 protease (Human immunodeficiency virus type 1 group M subtype B) for this molecule: Cc1cc(C(=O)O)ccc1OCC(=O)N[C@@H](Cc1ccccc1)[C@H](O)CCc1ccccc1C(=O)NC(C)(C)C
Out: 0.1 to 10 µM

In: Look up IC50 with HIV-1 protease (Human immunodeficiency virus type 1 group M subtype B) for this molecule: CC(C)(C)NC(=O)c1ccccc1CC[C@@H](O)[C@H](Cc1ccccc1)NC(=O)COc1c(F)cccc1F
Out: < 0.1 µM

In: Look up IC50 with HIV-1 protease (Human immunodeficiency virus type 1 group M subtype B) for this molecule: COc1cccc(OC)c1OCC(=O)N[C@@H](Cc1ccccc1)[C@H](O)CCc1ccccc1C(=O)NC(C)(C)C
Out: 0.1 to 10 µM

In: Look up IC50 with HIV-1 protease (Human immunodeficiency virus type 1 group M subtype B) for this molecule: CC(C)(C)NC(=O)c1ccccc1CC[C@@H](O)[C@H](Cc1ccccc1)NC(=O)NC(=O)CCl
Out: > 10 µM

In: Look up IC50 with HIV-1 protease (Human immunodeficiency virus type 1 group M subtype B) for this molecule: CC(C)(C)NC(=O)c1ccccc1CC[C@@H](O)[C@H](Cc1ccccc1)NC(=O)COc1cccnc1Cl
Out: 0.1 to 10 µM

---

pIC50: −log10 of the molar value.
Let's go through some recorded pIC50 values for HIV-1 protease (Human immunodeficiency virus type 1 group M subtype B) together.

COMPOUND: Cc1cccc(C)c1OCC(=O)N[C@@H](Cc1ccccc1)[C@H](O)CCc1cccc(F)c1C(=O)NC(C)(C)C
ASSAY VALUE: > 7.00

COMPOUND: CC(C)(C)NC(=O)c1ccccc1CC[C@@H](O)[C@H](Cc1ccccc1)NC(=S)Oc1ccc(F)cc1
ASSAY VALUE: < 5.00

COMPOUND: CC(C)(C)NC(=O)c1ccccc1CCC(O)C(Cc1ccccc1)NC(=O)C(F)=Cc1ccccc1 (stereo not drawn)
ASSAY VALUE: < 5.00

COMPOUND: Cc1cccc(C)c1OCC(=O)N[C@@H](Cc1ccccc1)[C@H](O)CCc1cccc(C)c1C(=O)NC(C)(C)C
ASSAY VALUE: > 7.00

COMPOUND: Cc1cccc(Cl)c1OCC(=O)N[C@@H](Cc1ccccc1)[C@H](O)CCc1ccccc1C(=O)NC(C)(C)C
ASSAY VALUE: > 7.00

COMPOUND: COc1ccc(Br)c(C(=O)N[C@@H](Cc2ccccc2)[C@H](O)CCc2ccccc2C(=O)NC(C)(C)C)c1
ASSAY VALUE: 5.00 to 7.00

COMPOUND: CC(C)(C)OC(=O)N[C@@H](Cc1ccccc1)[C@H](O)CCc1ccccc1C(=O)N[C@H](CO)c1ccccc1
ASSAY VALUE: 5.00 to 7.00

COMPOUND: CC(C)(C)NC(=O)c1ccccc1CC[C@@H](O)[C@H](Cc1ccccc1)NC(=O)COc1c(Cl)cccc1Cl
ASSAY VALUE: 5.00 to 7.00

In: Look up pIC50 with HIV-1 protease (Human immunodeficiency virus type 1 group M subtype B) for this compound: CCOC(=O)N[C@@H](Cc1ccccc1)[C@H](O)CCc1ccccc1C(=O)NCCC(C)C
Out: 5.00 to 7.00
